# Test system: MCF-7
# TEST PROTOCOL: CellTiter-Glo cell proliferation inhibition, MCF-7 (Effect Example 2)
# Type: cell-based
# APPLIED CONDITIONS: Homo sapiens, MCF7, 144 h; MCF-7 (CTG), 6 days, starting concentration 10 μM; read-out: IH % max (maximum inhibition percentage)
ENDPOINT NAME: inhibition at up to 10 µM (%)
Form entry: value (%) — number only.

Data request: Give reported inhibition at up to 10 µM value for CCN(CCOCCOc1ccc2c(c1)C(=O)N(C1CCC(=O)NC1=O)C2=O)CCOc1ccc(Oc2c(-c3ccc(S(C)(=O)=O)cc3)ccc3cc(O)ccc23)cc1 (centres unmarked) [Compound D23]
Data returned: 73

Data request: Read off the recorded inhibition at up to 10 µM for CS(=O)(=O)c1ccc(-c2ccc3cc(O)ccc3c2Oc2ccc(OCCCCN3CCN(c4ccc5c(c4)C(=O)N(C4CCC(=O)NC4=O)C5=O)CC3)cc2)cc1 (centres unmarked) [Compound D13]
Data returned: 34

Data request: Assign inhibition at up to 10 µM to the following record: CS(=O)(=O)c1ccc(-c2ccc3cc(O)ccc3c2Oc2ccc(N3CCN(CC(=O)N4CCN(c5ccc6c(c5)CN(C5CCC(=O)NC5=O)C6=O)CC4)CC3)cc2)cc1 (centres unmarked) [Compound D12]
Data returned: 45

Data request: Retrieve inhibition at up to 10 µM measured for CCN(CCOCCOCC(=O)N1CCN(c2ccc3c(c2)CN(C2CCC(=O)NC2=O)C3=O)CC1)CCOc1ccc(Oc2c(-c3ccc(S(C)(=O)=O)cc3)ccc3cc(O)ccc23)cc1 (centres unmarked) [Compound D46] and print it.
Data returned: 34

Data request: Tell me its inhibition at up to 10 µM given CS(=O)(=O)c1ccc(-c2ccc3cc(O)ccc3c2Oc2ccc(OCCN3CCN(c4ccc5c(c4)CN(C4CCC(=O)NC4=O)C5=O)CC3)cc2)cc1 (centres unmarked) [Compound D2] as the entry.
Data returned: 100

###

# Test system: MCF-7
# TEST PROTOCOL: CellTiter-Glo cell proliferation inhibition, MCF-7 (Effect Example 2)
# Format: cell-based
# APPLIED CONDITIONS: Homo sapiens, MCF7, 144 h; MCF-7 (CTG), 6 days, starting concentration 10 μM; read-out: IH % max (maximum inhibition percentage)
# From the text: 1. […] 3. Instruments • Biosafety cabinet (AIRTECH, BSC-1300A II) • Automated cell counter (Life Technologies, countess II) • Multifunctional microplate reader (Biotek, H1FM) • Orbital shaker (Hangzhou Allsheng Instruments Co., Ltd., OS-100) • XLFIT 5.3 (Inforstack Shanghai Co., Ltd.) […]
ENDPOINT NAME: inhibition at up to 10 µM (%)
Number in %, nothing else.

Data request: Give me measured inhibition at up to 10 µM, please, for this compound: CCN(CCOCCOCCN1CCN(c2ccc3c(c2)C(=O)N(C2CCC(=O)NC2=O)C3=O)CC1)CCOc1ccc(Oc2c(-c3ccc(S(C)(=O)=O)cc3)ccc3cc(O)ccc23)cc1 (stereo not shown)
Data returned: 53

Data request: Determine its reported inhibition at up to 10 µM: CCN(CCOc1ccc(Oc2c(-c3ccc(S(C)(=O)=O)cc3)ccc3cc(O)ccc23)cc1)C(=O)c1ccc(CCC2CCN(C3CCN(c4ccc5c(c4)C(=O)N(C4CCC(=O)NC4=O)C5=O)CC3)CC2)cc1 (stereo not shown)
Data returned: 52

Data request: Supply reported inhibition at up to 10 µM belonging to this compound: CCN(CCNc1cccc2c1CN(C1CCC(=O)NC1=O)C2=O)CCOc1ccc(Oc2c(-c3ccc(S(C)(=O)=O)cc3)ccc3cc(O)ccc23)cc1 (stereo not shown)
Data returned: 58

Data request: Please indicate inhibition at up to 10 µM recorded for CCN(CCOc1ccc(Oc2c(-c3ccc(S(C)(=O)=O)cc3)ccc3cc(O)ccc23)cc1)C(=O)c1ccc(CCC2CCN(C3CCN(c4cccc5c4C(=O)N(C4CCC(=O)NC4=O)C5=O)CC3)CC2)cc1 (stereo not shown)
Data returned: 45

Data request: Answer with reported inhibition at up to 10 µM of CCN(CCOCCOCCNc1cccc2c1CN(C1CCC(=O)NC1=O)C2=O)CCOc1ccc(Oc2c(-c3ccc(S(C)(=O)=O)cc3)ccc3cc(O)ccc23)cc1 (stereo not shown)
Data returned: 55

Data request: Read off the recorded inhibition at up to 10 µM for C[C@@H]1CN(CCOc2ccc(Oc3c(-c4ccc(S(C)(=O)=O)cc4)ccc4cc(O)ccc34)cc2)[C@@H](C)CN1CCOCC(=O)N1CCN(c2ccc3c(c2)CN(C2CCC(=O)NC2=O)C3=O)CC1 (stereo partly shown)
Data returned: 60

Data request: Kindly indicate its recorded inhibition at up to 10 µM. Item: CS(=O)(=O)c1ccc(-c2ccc3cc(O)ccc3c2Oc2ccc(OCCN3CCN(c4ccc5c(c4)C(=O)N(C4CCC(=O)NC4=O)C5)CC3)cc2)cc1 (stereo not shown)
Data returned: 39

Data request: Tell me measured inhibition at up to 10 µM for CS(=O)(=O)c1ccc(-c2ccc3cc(O)ccc3c2Oc2ccc(OCCOCCOCCOCCN3CCN(c4ccc5c(c4)C(=O)N(C4CCC(=O)NC4=O)C5=O)CC3)cc2)cc1 (stereo not shown) please.
Data returned: 44

Data request: Using known records, supply inhibition at up to 10 µM for C[C@@H]1CN(CCOCC(=O)N2CCN(c3ccc4c(c3)C(=O)N(C3CCC(=O)NC3=O)C4=O)CC2)[C@@H](C)CN1CCOc1ccc(Oc2c(-c3ccc(S(C)(=O)=O)cc3)ccc3cc(O)ccc23)cc1 (stereo partly shown)
Data returned: 51

Data request: Specify inhibition at up to 10 µM for CS(=O)(=O)c1ccc(-c2ccc3cc(O)ccc3c2Oc2ccc(OCCOCCOCCOCCOc3cccc4c3CN(C3CCC(=O)NC3=O)C4=O)cc2)cc1 (stereo not shown) and stop.
Data returned: 42
